# system_name: Histidine--tRNA ligase (Trypanosoma cruzi (strain CL Brener)) (UniProt Q4DA54)
# Sequence (Q4DA54 as listed by the source): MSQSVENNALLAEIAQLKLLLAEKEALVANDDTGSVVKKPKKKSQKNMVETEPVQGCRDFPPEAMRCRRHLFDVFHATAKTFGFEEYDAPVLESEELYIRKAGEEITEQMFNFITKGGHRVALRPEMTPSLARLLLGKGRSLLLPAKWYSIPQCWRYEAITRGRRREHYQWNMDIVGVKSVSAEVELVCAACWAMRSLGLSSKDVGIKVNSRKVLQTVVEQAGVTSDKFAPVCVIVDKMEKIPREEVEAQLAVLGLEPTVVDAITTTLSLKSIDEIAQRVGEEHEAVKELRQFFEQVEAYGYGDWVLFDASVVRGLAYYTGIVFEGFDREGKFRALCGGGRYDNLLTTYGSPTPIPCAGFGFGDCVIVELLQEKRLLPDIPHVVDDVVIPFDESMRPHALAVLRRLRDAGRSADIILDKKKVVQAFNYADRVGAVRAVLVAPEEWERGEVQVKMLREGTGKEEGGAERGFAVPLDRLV
# method_description: Trypanosoma cruzi histidyl tRNA synthetase (Tc-HisRS)
# Type: functional
# Design: scale not given: direction of the effect not stated beside the values
# conditions_used: 30 µM
The campaign covered roughly 69,000 compounds. About 30 (0.04%) showed an effect of 50% or more. The entries come from a sample that favours strong results as a whole.
This section presents compounds with their documented Percent Effect values.
value_kind: Percent Effect

> print(dat)
                                smiles.input  result
 1  Cc1ccnc(OC[C@@]23CCO[C@@H]2CCN(c2ncccn2)C3)n1    9.2%
 2  CC(C)NC(=O)[C@H]1C[C@@H]2CN(C(=O)NCc3ccccc3)C[C@H]1O2   9.09%
 3  O=C(Nc1cccnc1)[C@H]1CO[C@H]2CCN(c3ncc(F)cn3)C[C@H]2C1   8.11%
 4  Cc1noc(C)c1CN1C(=O)[C@H]2CC[C@@H]1CN(Cc1ccc(Cl)cc1)C2   3.17%
 5  O=C(C1CCOCC1)N1C[C@H]2CCC[C@@]2(COc2cccnc2)C1   12.8%
 6  CS(=O)(=O)NC[C@]12COC[C@H]1CN(C(=O)C1CCSCC1)C2  -6.35%
 7  Cc1ccc(CN2CCC[C@]3(C(=O)O)CN(CC4CC4)C[C@@H]3C2)s1  -3.17%
 8  O=C(CCc1ccccc1)N[C@H]1CC[C@@]2(CCC(=O)N2)CC1   9.71%
 9  CC(C)CN1CCS(=O)(=O)[C@@H]2CCN(S(=O)(=O)C3CC3)CC[C@@H]21   1.07%
10  O=C(CC1CC1)N[C@@H]1CN(C(=O)c2cccs2)C[C@@H]2CCCO[C@@H]21      0%
